Source listed as patent US10800789B2.

system: NS5A chimeric genotype 1b Con1 replicon with genotype 3a S52 strain NS5A gene; test: Replicon assay, genotype 3a NS5A chimera; type: cell-based, HCV; details: Hepatitis C virus, read-out: 3a (s), (s); activity range
# EC50 per record follows

[
  {
    "compound": "COC[C@H]1C[C@@H](c2ncc(-c3ccc4c(c3)COc3cc5c(ccc6nc([C@@H]7CC[C@H](C)N7C(=O)[C@@H](NC(=O)OC)C(C)C)[nH]c65)cc3-4)[nH]2)N(C(=O)[C@@H](NC(=O)OC)C2CCOCC2)C1 [GI]",
    "EC50": "0.1 to 0.999 nM"
  },
  {
    "compound": "CC[C@H](C)[C@H](NC(=O)OC)C(=O)N1[C@@H](C)CC[C@H]1c1ncc(-c2ccc3c(c2)COc2cc4c(ccc5nc([C@@H]6CC[C@H](C)N6C(=O)[C@@H](NC(=O)OC)[C@@H](C)OC)[nH]c54)cc2-3)[nH]1 [GF]",
    "EC50": "< 0.1 nM"
  },
  {
    "compound": "CC[C@H]1CC[C@@H](c2nc3ccc4cc5c(cc4c3[nH]2)OCc2cc(-c3cnc([C@@H]4CC[C@H](C)N4C(=O)[C@@H](NC(=O)OC)C(C)C)[nH]3)ccc2-5)N1C(=O)[C@@H](NC(=O)OC)[C@@H](C)O [GS]",
    "EC50": "0.1 to 0.999 nM"
  },
  {
    "compound": "COC(=O)N[C@H](C(=O)N1[C@@H](C)CC[C@H]1c1nc2ccc3cc4c(cc3c2[nH]1)OCc1cc(-c2cnc([C@@H]3CC[C@H](C)N3C(=O)[C@@H](NC(=O)OC)[C@@H](C)OC(F)F)[nH]2)ccc1-4)[C@@H](C)OC [GN]",
    "EC50": "< 0.1 nM"
  },
  {
    "compound": "COC(=O)N[C@H](C(=O)N1C[C@@H](F)C[C@H]1c1ncc(-c2ccc3c(c2)COc2cc4c(ccc5nc([C@@H]6CC[C@H](C)N6C(=O)[C@@H](NC(=O)OC)C(C)C)[nH]c54)cc2-3)[nH]1)C(C)C [HS]",
    "EC50": "< 0.1 nM"
  },
  {
    "compound": "CC[C@H]1CC[C@@H](c2ncc(-c3ccc4c(c3)COc3cc5c(ccc6nc([C@@H]7C[C@H](C)CN7C(=O)[C@@H](NC(=O)OC)C7CCOCC7)[nH]c65)cc3-4)[nH]2)N1C(=O)[C@@H](NC(=O)OC)C(C)C [HZ]",
    "EC50": "0.1 to 0.999 nM"
  },
  {
    "compound": "COC(=O)N[C@H](C(=O)N1[C@@H](C)CC[C@H]1c1nc2ccc3cc4c(cc3c2[nH]1)OCc1cc(-c2cnc([C@@H]3C[C@H](C)CN3C(=O)[C@@H](NC(=O)OC)C3CCOCC3)[nH]2)ccc1-4)C(C)C [EJ]",
    "EC50": "< 0.1 nM"
  },
  {
    "compound": "COC(=O)N[C@H](C(=O)N1C[C@@H](C)C[C@H]1c1nc2ccc3cc4c(cc3c2[nH]1)OCc1cc(-c2cnc([C@@H]3CC[C@H](C)N3C(=O)[C@@H](NC(=O)OC)C3CCOCC3)[nH]2)ccc1-4)C(C)C [FP]",
    "EC50": "< 0.1 nM"
  },
  {
    "compound": "CC[C@H](C)[C@H](NC(=O)OC)C(=O)N1[C@@H](C)CC[C@H]1c1nc2ccc3cc4c(cc3c2[nH]1)OCc1cc(-c2cnc([C@@H]3CC[C@H](C)N3C(=O)[C@@H](NC(=O)OC)C(C)C)[nH]2)ccc1-4 [GM]",
    "EC50": "< 0.1 nM"
  }
]

====

system: NS5A chimeric genotype 1b Con1 replicon with genotype 3a S52 strain NS5A gene; assay: Replicon assay, genotype 3a NS5A chimera; format: cell-based, HCV; settings: Hepatitis C virus, read-out: 3a (s) (nM), genotype 3a NS5A chimeric replicon, stable replicon cells (s)
Each entry falls in a class defined on EC50; the bands are LOW (below 0.05 nM), MID (0.05 nM to below 0.4 nM), HIGH (0.4 nM or more)

[
  {
    "entrySmiles": "CC[C@H](C)[C@H](NC(=O)OC)C(=O)N1[C@@H](C)CC[C@H]1c1nc2ccc3cc4c(cc3c2[nH]1)OCc1cc(-c2cnc([C@@H]3CC[C@H](C)N3C(=O)[C@@H](NC(=O)OC)C(C)C)[nH]2)ccc1-4",
    "answerLabel": "LOW"
  },
  {
    "entrySmiles": "CC[C@H]1CC[C@@H](c2ncc(-c3ccc4c(c3)COc3cc5c(ccc6nc([C@@H]7CC[C@H](CC)N7C(=O)[C@@H](NC(=O)OC)C7CCOCC7)[nH]c65)cc3-4)[nH]2)N1C(=O)[C@@H](NC(=O)OC)C1CCOCC1",
    "answerLabel": "MID"
  },
  {
    "entrySmiles": "CC[C@H]1CC[C@@H](c2ncc(-c3ccc4c(c3)COc3cc5c(ccc6nc([C@@H]7CC[C@H](CC)N7C(=O)[C@@H](NC(=O)OC)C7CCOCC7)[nH]c65)cc3-4)[nH]2)N1C(=O)[C@@H](NC(=O)OC)C(C)C",
    "answerLabel": "HIGH"
  },
  {
    "entrySmiles": "CC[C@H]1CC[C@@H](c2ncc(-c3ccc4c(c3)COc3cc5c(ccc6nc([C@@H]7C[C@H](C)CN7C(=O)[C@@H](NC(=O)OC)[C@@H](C)OC)[nH]c65)cc3-4)[nH]2)N1C(=O)[C@@H](NC(=O)OC)C(C)C",
    "answerLabel": "HIGH"
  },
  {
    "entrySmiles": "COC(=O)N[C@H](C(=O)N1[C@@H](C)CC[C@H]1c1ncc(-c2ccc3c(c2)COc2cc4c(ccc5nc([C@@H]6C[C@H](COC(F)F)CN6C(=O)[C@@H](NC(=O)OC)[C@@H](C)OC)[nH]c54)cc2-3)[nH]1)C(C)C",
    "answerLabel": "MID"
  },
  {
    "entrySmiles": "CC[C@H]1CC[C@@H](c2ncc(-c3ccc4c(c3)COc3cc5c(ccc6nc([C@@H]7C[C@@H]8CCC[C@@H]8N7C(=O)[C@@H](NC(=O)OC)C7CCOCC7)[nH]c65)cc3-4)[nH]2)N1C(=O)[C@@H](NC(=O)OC)C(C)C",
    "answerLabel": "LOW"
  },
  {
    "entrySmiles": "CC[C@H]1C[C@@H](c2nc3ccc4cc5c(cc4c3[nH]2)OCc2cc(-c3cnc([C@@H]4CC[C@H](C)N4C(=O)[C@@H](NC(=O)OC)C(C)C)[nH]3)ccc2-5)N(C(=O)[C@@H](NC(=O)OC)C2CCOCC2)C1",
    "answerLabel": "LOW"
  },
  {
    "entrySmiles": "COC(=O)N[C@H](C(=O)N1[C@@H](C)CC[C@H]1c1nc2ccc3cc4c(cc3c2[nH]1)OCc1cc(-c2cnc([C@@H]3[C@@H]5C[C@@H]5CN3C(=O)[C@@H](NC(=O)OC)C3CCOCC3)[nH]2)ccc1-4)C(C)C",
    "answerLabel": "MID"
  }
]

====

System: stable HCV 2a JFH-1 Rluc replicon cells (L31 present in NS5A)
Experiment: Renilla luciferase HCV replicon reporter assay, genotype 2a JFH-1
Assay type: cell-based
Settings: Hepatitis C virus, read-out: 2a JFH (nM), genotype 2a JFH-1 replicon (L31 in NS5A), stable cells
Experimental: Evaluation of Cell-Based Anti-HCV Activity: Antiviral potency (EC50) was determined using a Renilla luciferase (RLuc)-based HCV replicon reporter assay. […] 72 hours later, cells were lysed and Renilla luciferase activity quantified as recommended by the manufacturer (Promega-Madison, Wis.). […]

[
  {
    "compound": "CC[C@H](C)[C@H](NC(=O)OC)C(=O)N1[C@H](c2nc3ccc4cc5c(cc4c3[nH]2)OCc2cc(-c3cnc([C@@H]4CC[C@H](C)N4C(=O)[C@@H](NC(=O)OC)C4CCOCC4)[nH]3)ccc2-5)C[C@@H]2CCC[C@@H]21 [IO]",
    "EC50": "0.033 nM"
  },
  {
    "compound": "COC(=O)N[C@H](C(=O)N1C[C@H]2C[C@H]2[C@H]1c1ncc(-c2ccc3c(c2)COc2cc4c(ccc5nc([C@@H]6CC[C@H](C)N6C(=O)[C@@H](NC(=O)OC)C(C)C)[nH]c54)cc2-3)[nH]1)C(C)C [HR]",
    "EC50": "0.022 nM"
  }
]
